system: U2OS; test: Incucyte cell viability with U2OS; type: toxicity, cell-based; details: human, 18 h, 10 µM, compound concentration 10 uM, replicate number 2; also: unitless GR value; below 1 slowed growth and below 0 cell loss
Returns one of y or n; y when Growth Rate is >= 0.9.

Prompt: Evaluate O=C(O)c1ccc(CN2C[C@@H]3C[C@H]2CN3Cc2ccc(Oc3ccc(-c4ncco4)cc3)cc2)cc1 [ACEBILUSTAT] : Growth Rate at minimum 0.9?
Completion: n

Prompt: Evaluate O=C(Nc1cc(C(F)(F)F)cc(C(F)(F)F)c1)c1cc(Cl)ccc1O [IMD-0354] : Growth Rate at minimum 0.9?
Completion: n

Prompt: Evaluate `CN(C)C/C=C/C(=O)Nc1cccc(S(=O)(=O)N2CCC(NC(=O)c3n[nH]cc3NC(=O)c3c(Cl)cc(Cl)cc3Cl)CC2)c1` : Growth Rate at minimum 0.9?
Completion: n

Prompt: Evaluate `CCn1c(=O)c2c(C)c(C(=O)N3CCC(O)CC3)sc2n(CCC(F)(F)F)c1=O` : Growth Rate at minimum 0.9?
Completion: y

Prompt: Evaluate `CC[C@@H](CO)Nc1nc(Nc2cccc(NC(=O)C(C)(C)C)c2)ncc1F` : Growth Rate at minimum 0.9?
Completion: n

All figures here come from ChEMBL document CHEMBL5303304.
